target: human IL-17A (human, UniProt Q16552 24-155); assay: cell-based or functional assay
Sequence (Q16552 other isoform, or with tags, fused parts or gaps): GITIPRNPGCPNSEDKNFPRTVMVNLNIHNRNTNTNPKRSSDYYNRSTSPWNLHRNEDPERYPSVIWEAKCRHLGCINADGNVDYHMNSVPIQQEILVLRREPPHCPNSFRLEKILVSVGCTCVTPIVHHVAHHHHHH
measurement-label: IC50, hIL-17A induced IL-6, HT-1080, without HSA (nM)
Answers are plain numbers, in nM.

Before answering, review these 2 worked examples.
binder | reported
13B03-SH-Fc (Fc fusion, not shown: a dimerising Fc or GST, bivalent Fc fusion from Hek-293-6E cells; signal peptide left out; also called MSB0010493; 13B03VHH-SH-Fc) EVQLVESGGGSVQAGDSLRLSCAASGRANSINWFGWFRQTPGKEREFVAGIRWSDAYTEYANSVKGRFTISRDNAKNTVDLQMDSLKPEDTAVYYCVLDLSTVRYWGQGTQVTVSSEPKSSDKTHTCPPCP | 0.19
SH-Fc-(GS)2-13B03 (Fc fusion, not shown: a dimerising Fc or GST; small tags and cut ends, also called MSB0010618; SH-(GS)2-Fc-13B03) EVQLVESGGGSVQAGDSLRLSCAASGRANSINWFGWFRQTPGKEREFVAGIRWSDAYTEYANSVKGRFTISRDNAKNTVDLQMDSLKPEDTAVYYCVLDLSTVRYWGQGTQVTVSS | 0.37

Batch request: IC50, hIL-17A induced IL-6, HT-1080, without HSA per item, same order as input.
1. SH-Fc-(GS)2-13E02 (Fc fusion, not shown: a dimerising Fc or GST; small tags and cut ends, also called MSB0010619; SH-(GS)2-Fc-13E02) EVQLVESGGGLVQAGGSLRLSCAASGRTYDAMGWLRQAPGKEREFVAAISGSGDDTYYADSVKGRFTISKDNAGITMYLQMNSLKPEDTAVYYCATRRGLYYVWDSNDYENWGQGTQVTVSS
2. 13E02-LH-Fc (Fc fusion, not shown: a dimerising Fc or GST, bivalent Fc fusion from Hek-293-6E cells; also called MSB0010606) EVQLVESGGGLVQAGGSLRLSCAASGRTYDAMGWLRQAPGKEREFVAAISGSGDDTYYADSVKGRFTISKDNAGITMYLQMNSLKPEDTAVYYCATRRGLYYVWDSNDYENWGQGTQVTVSSEPKTPKPQPQPQPQPNPTTESKCPKCP

## Result
1: 0.31; 2: 0.19
